Entries and their Potency
Assay: Quantitative High-Throughput drug screen in 47 multiple myeloma cell lines against the NCATS MIPE library collection: KMM1_JCRB cell viability assay (AID 1918960); further: potency means the concentration at half of the fitted maximal effect; nearly all actives have a fitted effect of over 30% in size
Details: KMM1 myeloma viability, CellTiter-Glo ATP luminescence, 48 h; series mostly up to 45.8 µM
Records with an inconclusive call do not appear. Calls of active or inactive are those of the source. The call rests on the fitted dose curve; in most records, active means well fitted cell-killing curve with a large enough effect; inconclusive means small, poorly fitted or top-dose-only effect, or effect the other way; inactive means no such curve, though single readings can be large or run the other way.

Compound: c1ccc(CNc2nc(NCc3ccccc3)c3ccccc3n2)cc1
Potency: 4.69 µM (active)

Compound: CCCCCN=C(N)NN=Cc1c[nH]c2ccc(OC)cc12
Potency: 3.32 µM (active)

Compound: CC(C)Oc1ccc(C(=O)N[C@H](CNC(=O)CN(C)C)Cc2ccc(-c3cn4cccc([C@H](C)O)c4n3)cc2)cc1Cl
Potency: 0.209 µM (active)

Compound: Cc1[nH]c(C=C2C(=O)Nc3ccccc32)c(C)c1CCC(=O)O
Potency: 13.2 µM (active)

###

Assay: Quantitative High-Throughput drug screen in 47 multiple myeloma cell lines against the NCATS MIPE library collection: ARP1_JJKsccF8 cell viability assay (AID 1918928; further: nearly all actives have a fitted effect of over 40% in size)
Conditions: ARP1 myeloma cells viability, CellTiter-Glo ATP, 48 h; series mostly up to 45.8 µM
Records with an inconclusive call do not appear. The source made the active and inactive calls. Calls follow the shape of the dose curve; as a rule, active = well fitted cell-killing curve with a large enough effect; inconclusive = small, poorly fitted or top-dose-only effect, or effect the other way; inactive = no such curve, though single readings can be large or run the other way.
Labels: active, inactive

Compound: COc1cccc2c1C(=O)c1c(O)c3c(c(O)c1C2=O)C[C@@](O)(C(=O)CO)C[C@@H]3O[C@H]1C[C@H](N)[C@H](OC2CCCCO2)[C@H](C)O1 (some centres not stated)
Group label: active

Compound: CC(C)Oc1ccc(C(=O)N[C@H](CNC(=O)CN(C)C)Cc2ccc(-c3cn4cccc([C@H](C)O)c4n3)cc2)cc1Cl
Group label: active

Compound: C[C@H]1O[C@H](O[C@H]2[C@H](O)[C@@H](O)[C@@H](O[C@H]3[C@H](O)[C@@H](O)C(O)O[C@H]3CO)O[C@H]2CO)[C@H](O)[C@@H](O)[C@H]1N[C@H]1C=C(CO)[C@@H](O)[C@H](O)[C@@H]1O (some centres not stated)
Group label: inactive

Compound: Cn1cc(-c2ccc3ncc(Cc4ccc5ncccc5c4)n3n2)cn1
Group label: inactive

Compound: COc1ccc(Nc2cc(-c3cnc(N)nc3)nc(N3CCOCC3)n2)cn1
Group label: active

Compound: NC1=N[C@H]2[C@H](CS[C@H]2CCCCC(=O)O)N1
Group label: inactive

Compound: CCOC(=O)C=C[C@H](C[C@@H]1CCNC1=O)NC(=O)[C@@H](CC(=O)[C@@H](NC(=O)c1cc(C)on1)C(C)C)Cc1ccc(F)cc1
Group label: inactive

Compound: Cc1cnc(NC(=O)Nc2cc(Br)c(C)cc2OC[C@@H]2CNCCO2)cn1
Group label: active

Compound: CCOC(=O)[C@@H](N)Cc1ccc(-c2cc(O[C@H](c3ccc(Cl)cc3-n3ccc(C)n3)C(F)(F)F)nc(N)n2)cc1
Group label: active

Compound: N#CNC(=NCCCCCCOc1ccc(Cl)cc1)Nc1ccncc1
Group label: active

Compound: O=C(c1ccc(F)cc1)N1CCC[C@H](c2nc(-c3ccc(F)cc3)no2)C1
Group label: inactive

Compound: C[N+](C)([O-])CCNc1ccc(NCC[N+](C)(C)[O-])c2c1C(=O)c1c(O)ccc(O)c1C2=O
Group label: inactive

Compound: OC[C@H]1OC(O)C[C@@H](O)[C@H]1O (some centres not stated)
Group label: inactive

Compound: NC(=O)c1ncn([C@@H]2O[C@H](CO)[C@@H](O)[C@@H]2O)c1N
Group label: inactive

Compound: N=c1ccn2c(n1)O[C@H]1[C@@H](O)[C@@H](CO)O[C@H]12
Group label: active

Compound: COC1=C(OC)C(=O)C(CC=C(C)CCC=C(C)CCC=C(C)CCC=C(C)CCC=C(C)CCC=C(C)CCC=C(C)CCC=C(C)CCC=C(C)CCC=C(C)C)=C(C)C1=O
Group label: inactive

Compound: CC(C)[C@H](CO)Nc1nc(Nc2cccc(Cl)c2)c2ncn(C(C)C)c2n1
Group label: active
